Target: Receptor tyrosine-protein kinase erbB-2 (Homo sapiens, UniProt P04626)
Sequence (P04626 whole entry): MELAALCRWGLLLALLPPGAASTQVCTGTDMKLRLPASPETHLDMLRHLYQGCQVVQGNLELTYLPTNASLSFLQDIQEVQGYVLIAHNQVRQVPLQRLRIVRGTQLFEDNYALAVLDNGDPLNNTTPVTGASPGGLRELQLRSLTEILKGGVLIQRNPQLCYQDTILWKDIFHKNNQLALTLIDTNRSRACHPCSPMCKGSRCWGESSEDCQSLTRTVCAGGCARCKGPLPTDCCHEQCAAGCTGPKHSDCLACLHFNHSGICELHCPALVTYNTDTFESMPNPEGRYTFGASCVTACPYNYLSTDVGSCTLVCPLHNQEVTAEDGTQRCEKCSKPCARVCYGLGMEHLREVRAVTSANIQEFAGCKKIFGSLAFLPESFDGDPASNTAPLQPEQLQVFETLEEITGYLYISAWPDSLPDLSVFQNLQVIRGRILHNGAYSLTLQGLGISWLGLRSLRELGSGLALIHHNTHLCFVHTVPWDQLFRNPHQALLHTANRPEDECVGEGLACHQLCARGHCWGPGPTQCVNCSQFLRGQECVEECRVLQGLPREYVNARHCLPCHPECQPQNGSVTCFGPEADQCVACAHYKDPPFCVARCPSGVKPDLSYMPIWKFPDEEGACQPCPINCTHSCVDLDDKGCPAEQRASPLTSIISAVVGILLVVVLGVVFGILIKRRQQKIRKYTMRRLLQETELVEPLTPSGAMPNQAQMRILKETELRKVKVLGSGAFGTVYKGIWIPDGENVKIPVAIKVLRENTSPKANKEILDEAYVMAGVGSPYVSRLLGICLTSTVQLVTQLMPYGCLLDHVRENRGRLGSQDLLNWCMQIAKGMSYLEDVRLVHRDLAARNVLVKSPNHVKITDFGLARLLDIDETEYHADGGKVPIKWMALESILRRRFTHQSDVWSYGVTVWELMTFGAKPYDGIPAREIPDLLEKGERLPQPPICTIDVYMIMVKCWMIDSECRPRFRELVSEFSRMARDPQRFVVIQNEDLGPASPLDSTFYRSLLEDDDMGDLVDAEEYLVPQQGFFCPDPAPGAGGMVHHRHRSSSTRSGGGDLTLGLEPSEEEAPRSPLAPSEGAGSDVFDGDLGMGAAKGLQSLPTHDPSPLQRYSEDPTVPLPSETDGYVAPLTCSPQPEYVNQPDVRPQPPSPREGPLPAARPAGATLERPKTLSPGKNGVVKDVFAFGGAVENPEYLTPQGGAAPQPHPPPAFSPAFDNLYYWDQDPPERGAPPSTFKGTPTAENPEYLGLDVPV

{"columns": ["MOLECULE SMILES", "U", "IC50"],
 "data": [
  ["COc1cc2ncnc(Nc3ccc(-c4cc(-c5ccc(Br)cc5)c(C#N)c(=N)[nH]4)cc3)c2cc1OC", "nM", 1040]
]}

* * *

Heads up, these compounds all have pIC50 values measured for Epidermal growth factor receptor (Homo sapiens, UniProt P00533).
pIC50: −log10 of the molar value.
MEASUREMENT NAME: pIC50

{"columns": ["MOLECULE SMILES", "MEASUREMENT NAME", "REPORTED MEASUREMENT"],
 "data": [
  ["N#Cc1c(-c2ccc(F)cc2)cc(-c2ccc(Nc3ncnc4ccccc34)cc2)[nH]c1=N", "pIC50", 5.68],
  ["COc1cc2ncnc(Nc3ccc(-c4cc(-c5ccc(Br)cc5)c(C#N)c(=N)[nH]4)cc3)c2cc1OC", "pIC50", 5.71]
]}

Source of measurements: BindingDB's records for doi:10.3109/14756366.2013.765417
